Exercise: state measured melting point for each of the molecules provided.

Guide cases for melting point, answers given:
O=C(NC(=O)c1cccc(-c2noc(-c3ccccc3F)n2)c1)OCCc1ccccc1	129 to 130 °C
O=C(NC(=O)c1cccc(-c2noc(-c3ccccc3F)n2)c1)O[C@@H]1CCOC1	152 to 156 °C
O=C(NC(=O)c1cccc(-c2noc(-c3ccccc3F)n2)c1)OC(c1ccccc1)C(F)(F)F (stereo not shown)	164 to 165 °C

Turning to the following molecule.
(Q) Dear colleague, please send me the reported melting point for O=C(NC(=O)N1CCN(c2ccccc2)CC1)c1cccc(-c2noc(-c3ccccc3F)n2)c1 when you can.
(A) 169 to 173 °C

* * *

Would you kindly list melting point for each of these molecules?

Worked set:
CCN(CC)C(=O)NC(=O)c1cccc(-c2noc(-c3ccccc3F)n2)c1 [Compound 26]	161 to 163 °C
CC(C)C(=O)NC(=O)c1cccc(-c2noc(-c3ccccc3F)n2)c1 [Compound 46]	183 to 184 °C

Answer for every listed entry: what is its melting point? The entries follow.
1. C[C@@H](OC(=O)NC(=O)c1cccc(-c2noc(-c3ccccc3F)n2)c1)C(N)=O [Compound 44]
2. O=C(NCCF)NC(=O)c1cccc(-c2noc(-c3ccccc3F)n2)c1 [Compound 7]

(A)
193 to 196 °C
233 to 234 °C

// for each molecule in input: emit melting point
1. CC(OC(=O)NC(=O)c1cccc(-c2noc(-c3ccccc3F)n2)c1)c1ccncc1 (centres unmarked) [Compound 48]
2. CCOC(=O)NC(=O)c1cccc(-c2noc(-c3ccccc3F)n2)c1 [Compound 2]
3. CC(OC(=O)NC(=O)c1cccc(-c2noc(-c3ccccc3F)n2)c1)c1ccccc1 (centres unmarked) [Compound 30]
4. O=C(NC(=O)N1CCOCC1)c1cccc(-c2noc(-c3ccccc3F)n2)c1 [Compound 25]

(A)
1. 180 to 183 °C
2. 160.5 to 162 °C
3. 140 to 141 °C
4. 190 to 194 °C

* * *

MEASUREMENT TYPE: melting point

Here are 3 compounds together with their reported answers.
O=C(NC(=O)c1cccc(-c2noc(-c3ccccc3F)n2)c1)OC1CCOC1 (centres unmarked)	197 to 200 °C
O=C(NC(=O)c1cccc(-c2noc(-c3ccccc3F)n2)c1)OC1CCCCC1	172 to 174 °C
O=C(NC(=O)C(F)(F)F)c1cccc(-c2noc(-c3ccccc3F)n2)c1	119 to 120 °C

I have 5 compounds here; please give me melting point for each one.
1. O=C(NC(=O)c1cccc(-c2noc(-c3ccccc3F)n2)c1)NC1CC1
2. CC(OC(=O)NC(=O)c1cccc(-c2noc(-c3ccccc3F)n2)c1)C1CC1 (centres unmarked)
3. CC(C)OC(=O)NC(=O)c1cccc(-c2noc(-c3ccccc3F)n2)c1
4. O=C(NC(=O)c1cccc(-c2noc(-c3ccccc3F)n2)c1)OC1CCN(Cc2ccccc2)CC1
5. CC(OC(=O)NC(=O)c1cccc(-c2noc(-c3ccccc3F)n2)c1)C(C)(C)C (racemic)

(A)
1: 226 to 227.5 °C; 2: 150 to 152 °C; 3: 172 to 174 °C; 4: 132 to 134 °C; 5: 170 to 173 °C

* * *

Would you mind telling me the reported melting point of each entry?

O=C(NC(=O)c1cccc(-c2noc(-c3ccccc3F)n2)c1)OC1Cc2ccccc2C1	165 to 168 °C
O=C(NC(=O)c1cccc(-c2noc(-c3ccccc3F)n2)c1)Oc1cccc2c1CCCC2	199 to 202 °C
CC(OC(=O)NC(=O)c1cccc(-c2noc(-c3ccccc3F)n2)c1)c1ccc(C(F)(F)F)cc1 (centres unmarked)	161 to 163 °C

Kindly give each listed record's melting point.
1. COCC(C)OC(=O)NC(=O)c1cccc(-c2noc(-c3ccccc3F)n2)c1 (centres unmarked)
2. CONC(=O)NC(=O)c1cccc(-c2noc(-c3ccccc3F)n2)c1
3. CC(OC(=O)NC(=O)c1cccc(-c2noc(-c3ccccc3F)n2)c1)c1ccc(F)cc1 (centres unmarked)
4. CCCOC(=O)NC(=O)c1cccc(-c2noc(-c3ccccc3F)n2)c1
5. COC(=O)NC(=O)c1cccc(-c2noc(-c3ccccc3F)n2)c1

(A)
141 to 143 °C
206 to 207 °C
116 to 118 °C
152 to 155 °C
176 to 177 °C

* * *

I'd be grateful if you could share measured melting point for these entries.

O=C(NC(=O)c1cccc(-c2noc(-c3ccccc3F)n2)c1)OCc1ccccc1 [Compound 19]	133 to 134 °C

Dear colleague, could you send me melting point for each of the items below? Thanks.
1. CC(C)C(C)OC(=O)NC(=O)c1cccc(-c2noc(-c3ccccc3F)n2)c1 (stereo not shown) [Compound 38]
2. COCCOC(=O)NC(=O)c1cccc(-c2noc(-c3ccccc3F)n2)c1 [Compound 21]
3. CN1C(=O)C[C@H](OC(=O)NC(=O)c2cccc(-c3noc(-c4ccccc4F)n3)c2)C1=O [Compound 43]
4. O=C(NC(=O)c1cccc(-c2noc(-c3ccccc3F)n2)c1)OC1CCCC1 [Compound 22]
5. O=C(NC(=O)c1cccc(-c2noc(-c3ccccc3F)n2)c1)OCCN1CCOCC1 [Compound 12]

(A)
1. 168 to 170 °C
2. 139 to 141 °C
3. 120 to 123 °C
4. 187 to 190 °C
5. 223 to 224 °C

Hey, quick one: what's melting point for each of these?
1. CC(=O)NC(=O)c1cccc(-c2noc(-c3ccccc3F)n2)c1 [Compound 45]
2. O=C(NC(=O)N1CCCC1)c1cccc(-c2noc(-c3ccccc3F)n2)c1 [Compound 24]
3. Cc1cc(C)cc(NC(=O)NC(=O)c2cccc(-c3noc(-c4ccccc4F)n3)c2)c1 [Compound 27]
4. O=C(NC(=O)c1cccc(-c2noc(-c3ccccc3F)n2)c1)Nc1ccccn1 [Compound 9]

(A)
["119 to 120 °C", "178 to 180 °C", "247 to 250 °C", "252 to 254 °C"]

* * *

I'd be grateful if you could share measured melting point for these entries.

# example entries with known answers
O=C(NC(=O)c1cccc(-c2noc(-c3ccccc3F)n2)c1)OC1CCOCC1	177.5 to 179 °C
O=C(NC(=O)c1cccc(-c2noc(-c3ccccc3F)n2)c1)Nc1ncccn1	247 to 249 °C
O=C(NC(=O)c1cccc(-c2noc(-c3ccccc3F)n2)c1)Oc1ccccc1	252 to 254 °C
Cc1ccc(S(=O)(=O)NC(=O)NC(=O)c2cccc(-c3noc(-c4ccccc4F)n3)c2)cc1	188 to 191 °C
NC(=O)NC(=O)c1cccc(-c2noc(-c3ccccc3F)n2)c1	240 °C
O=C(NC(=O)c1cccc(-c2noc(-c3ccccc3F)n2)c1)OCC1CCCCC1	134 to 138 °C

# batch size: 2; output melting point per entry
1. CC(C)CC(C)OC(=O)NC(=O)c1cccc(-c2noc(-c3ccccc3F)n2)c1 (centres unmarked)
2. O=C(NC(=O)c1cccc(-c2noc(-c3ccccc3F)n2)c1)OC1CCCc2ccccc21 (centres unmarked)

(A)
1. 108 to 109 °C
2. 168 to 170 °C
